Data origin, for the record: the supplement of paper PMC13380429

Test system: Vero E6 infected with SARS-CoV-2
Assay: SARS-CoV-2 infection rate relative to infected DMSO; higher = more infection, active = 60 or less
Conditions: 24 h
Outcome measure: SARS-CoV-2 infection rate

Any idea what SARS-CoV-2 infection rate was measured for N[C@@H](C(=O)N[C@@H]1C(=O)N2C(C(=O)O)=C(Cl)CC[C@H]12)c1ccccc1 [loracarbef] (10 µM) ?
101% (inactive)

Any idea what SARS-CoV-2 infection rate was measured for Oc1cc2c(c(Cl)c1O)CCNCC2c1ccccc1 (centres undefined) (10 µM) ?
97.5% (inactive)

Any idea what SARS-CoV-2 infection rate was measured for O=c1[nH]c([C@@H]2CCCN2)nc2c1oc1ccc(Cl)cc12 (0.833333 µM) ?
104% (inactive)

Any idea what SARS-CoV-2 infection rate was measured for COc1cc(N2CCN(C(C)=O)CC2)ccc1Nc1ncc(Cl)c(Nc2ccc(N3CCN(C(C)=O)CC3)cc2OC)n1 (10 µM) ?
114% (inactive)

Any idea what SARS-CoV-2 infection rate was measured for CCCCC1C(=O)N(c2ccccc2)N(c2ccccc2)C1=O [phenylbutazone] (10 µM) ?
97.5% (inactive)

Any idea what SARS-CoV-2 infection rate was measured for CCCCc1nc2cc(/C=C/C(=O)NO)ccc2n1CCN(CC)CC (10 µM) ?
109% (inactive)

Any idea what SARS-CoV-2 infection rate was measured for CC[N+](C)(CC)CC(=O)Nc1c(C)cccc1C [N-methyllidocaine-iodide] (10 µM) ?
100% (inactive)

Any idea what SARS-CoV-2 infection rate was measured for O=c1[nH]c2ccccc2n1C1CCN(CCOc2ccccc2)CC1 [oxiperomide] (0.833333 µM) ?
104% (inactive)

Any idea what SARS-CoV-2 infection rate was measured for C/C(=C\C(=O)OCCCCCCCCC(=O)O)C[C@@H]1OC[C@H](C[C@@H]2O[C@H]2[C@@H](C)[C@H](C)O)[C@@H](O)[C@H]1O [mupirocin] (10 µM) ?
110% (inactive)

Any idea what SARS-CoV-2 infection rate was measured for O=C1CCC[C@@H]2[C@H]3CCCN4CCC[C@@H](CN12)[C@@H]34 [matrine] (10 µM) ?
112% (inactive)

Any idea what SARS-CoV-2 infection rate was measured for c1ccc(-c2ccc(CNc3nc(-c4ccccn4)nnc3-c3ccccc3)cc2)cc1 (10 µM) ?
114% (inactive)

Any idea what SARS-CoV-2 infection rate was measured for Cc1[nH]c(/C=C2\C(=O)Nc3ccccc32)c(C)c1CCC(=O)O [orantinib] (10 µM) ?
92.5% (inactive)

Any idea what SARS-CoV-2 infection rate was measured for CC(C)OC(=O)[C@H](C)N[P@@](=O)(OC[C@H]1O[C@@H](n2ccc(=O)[nH]c2=O)[C@](C)(F)[C@@H]1O)Oc1ccccc1 (10 µM) ?
108% (inactive)

Any idea what SARS-CoV-2 infection rate was measured for CN(CCCN1c2ccccc2CCc2ccccc21)CC(=O)c1ccc(Cl)cc1 [lofepramine] (10 µM) ?
114% (inactive)

Any idea what SARS-CoV-2 infection rate was measured for CCCN(CCC)C1Cc2cc(OC)c(OC)cc2C1 (10 µM) ?
109% (inactive)

Any idea what SARS-CoV-2 infection rate was measured for CC1(C)CCC(C)(C)c2cc(NC(=O)c3ccc(C(=O)O)cc3)ccc21 [tamibarotene] (10 µM) ?
108% (inactive)

Any idea what SARS-CoV-2 infection rate was measured for CNC(=O)c1ccc(Nc2ncc(C(F)(F)F)c(NCc3nccnc3N(C)S(C)(=O)=O)n2)cc1 [defactinib] (0.833333 µM) ?
100% (inactive)

Any idea what SARS-CoV-2 infection rate was measured for COc1cccc(-n2nc(C(=O)O)cc2-c2ccc(C3CCCCC3)c(Cl)c2)c1 (10 µM) ?
102% (inactive)

Any idea what SARS-CoV-2 infection rate was measured for CC12CCC(C(=O)N(CCCCN3CCN(c4ccccn4)CC3)C1=O)C2(C)C (centres undefined) [piricapiron] (10 µM) ?
103% (inactive)

Any idea what SARS-CoV-2 infection rate was measured for CN(Cc1ccc(C(C)(C)C)cc1)Cc1cccc2ccccc12 [butenafine] (10 µM) ?
71% (inactive)

Any idea what SARS-CoV-2 infection rate was measured for CCC[C@@H]1CC2=CC(=O)CC[C@]2(C)[C@H]2CC[C@@]3(C)[C@@H](CC[C@@]3(O)CCC(=O)O)[C@H]12 (10 µM) ?
104% (inactive)

Any idea what SARS-CoV-2 infection rate was measured for O=C(Nc1cccc2cccnc12)c1ccc(N2C(=O)[C@@H]3[C@H](C2=O)[C@H]2C=C[C@@H]3C2)cc1 (10 µM) ?
102% (inactive)

Any idea what SARS-CoV-2 infection rate was measured for COc1ccc2[nH]c(SCc3ncc(C)c(OC)c3C)nc2c1 [omeprazole-sulfide] (10 µM) ?
104% (inactive)

Any idea what SARS-CoV-2 infection rate was measured for Oc1ccc(-c2c(-c3ccccc3)nn3c(C(F)(F)F)cc(C(F)(F)F)nc23)cc1 (10 µM) ?
104% (inactive)

Any idea what SARS-CoV-2 infection rate was measured for Nc1nc(N)c(N=O)c(OCC2CCCCC2)n1 (10 µM) ?
54.5% (active)

Any idea what SARS-CoV-2 infection rate was measured for CCCNC(=O)NS(=O)(=O)c1ccc(Cl)cc1 [chlorpropamide] (10 µM) ?
79.5% (inactive)

Any idea what SARS-CoV-2 infection rate was measured for NC(=O)[C@@H](CC1CC1)[C@@H](CCC(F)(F)F)C(=O)N[C@H]1N=C(c2ccccc2)c2cccc(F)c2NC1=O (10 µM) ?
102% (inactive)

Any idea what SARS-CoV-2 infection rate was measured for COc1cc2c(cc1O)C(CCc1ccc(Cl)cc1)N(C)CC2 (centres undefined) (10 µM) ?
72% (inactive)

Any idea what SARS-CoV-2 infection rate was measured for O=C(O)C[C@H](O)C(=O)O [malic-acid] (10 µM) ?
104% (inactive)

Any idea what SARS-CoV-2 infection rate was measured for Cc1[nH]c(/C=C2\C(=O)Nc3ccc(S(=O)(=O)N(C)c4cccc(Cl)c4)cc32)c(C)c1C(=O)N1CCN(C)CC1 (10 µM) ?
104% (inactive)

Any idea what SARS-CoV-2 infection rate was measured for C[C@H](N)C(=O)N[C@@H](CCC(N)=O)C(=O)O [dipeptamin] (10 µM) ?
102% (inactive)

Any idea what SARS-CoV-2 infection rate was measured for C[N+]1(CCCCC[N+]2(C)CCCC2)CCCC1 [pentolinium] (10 µM) ?
102% (inactive)

Any idea what SARS-CoV-2 infection rate was measured for Cc1ccccc1C(c1ccccc1C)N1C2CCC1CC(O)(c1ccccc1)C2 (centres undefined) (10 µM) ?
85% (inactive)

Any idea what SARS-CoV-2 infection rate was measured for O=C(c1ccc(F)cc1)C1CCN(CCn2c(=S)[nH]c3ccccc3c2=O)CC1 [altanserin] (10 µM) ?
99% (inactive)
